System: HL-60(TB) leukemia
Test: NCI tumour cell line growth inhibition, 48 h
Endpoint: TGI (µM)
Write it as a number; the unit µM goes unstated.

Req: Would you mind telling me what TGI value was observed for "O=C1c2ccccc2C(=O)c2c(O)c(NCCCNCCO)cc(O)c21" ?
Resp: 19.7

Req: Would you mind telling me what TGI value was observed for C=CCN1C(=O)/C(=C/c2ccco2)N=C1SC1OC(COC(C)=O)C(OC(C)=O)C(OC(C)=O)C1OC(C)=O (stereo unspecified) ?
Resp: 53.4

Req: Would you mind telling me what TGI value was observed for COc1cccc(-c2ccc3c(c2)C2CCN(Cc4ccccc4)C3C2)c1 (stereo unspecified) ?
Resp: 21

Req: Would you mind telling me what TGI value was observed for "O=C(CN1CCN(c2cc3c(cc2F)c(=O)c(C(=O)O)cn3C2CC2)CC1)Nc1nc(-c2ccc(Cl)cc2)cs1" ?
Resp: 6.29

Req: Would you mind telling me what TGI value was observed for "Oc1ccc(-c2nc3ccc4[nH]ncc4c3c3c2CCCC3)c(F)c1" ?
Resp: 8.82

Req: Would you mind telling me what TGI value was observed for CCN1C(=O)CCCc2c1ccc(Nc1ncc(Cl)c(NC3[C@@H](C(N)=O)[C@@H]4C=C[C@H]3C4)n1)c2OC (stereo partly specified) ?
Resp: 5.46

Req: Would you mind telling me what TGI value was observed for Cc1ccc(C(NC(=O)c2ccccc2)c2ccc3cccnc3c2O)cc1 (stereo unspecified) ?
Resp: 1

Req: Would you mind telling me what TGI value was observed for "NC(=O)c1c([N+](=O)[O-])cc(C(F)(F)F)cc1[N+](=O)[O-]" ?
Resp: 47.4

Req: Would you mind telling me what TGI value was observed for "FC(F)(F)c1ccc(-c2cnc(-n3cc(COCCN4CCCCC4)nn3)nc2NC2CCCCCC2)cc1" ?
Resp: 8.26

Req: Would you mind telling me what TGI value was observed for "Cc1cc(Nc2nc(-c3cccnc3)nc3ccccc23)n[nH]1" ?
Resp: 49

Req: Would you mind telling me what TGI value was observed for CSC1C(=O)Nc2ccc3ccccc3c21 (stereo unspecified) ?
Resp: 10.8

Req: Would you mind telling me what TGI value was observed for "Cc1ccc(C(=O)N(Cc2ccccc2)Cc2ccccc2)cc1N=NN(C)C" ?
Resp: 61.9

Req: Would you mind telling me what TGI value was observed for "O=C1C=C2SC3C[C@@]24CC1[N+]1=c2c4c(c(O)c4c2=C(C=N4)CC1)N3" ?
Resp: 3.78

Req: Would you mind telling me what TGI value was observed for "CCCCCCNC(=O)Oc1ccc(/C(=C(/C)Cc2ccc(OC)cc2)c2ccc(OCCCN(C)C)cc2)cc1" ?
Resp: 24.9

Req: Would you mind telling me what TGI value was observed for "COc1cccc(-c2nn(-c3ccccc3)cc2-c2ccnc(NCCNC(=O)Nc3cccc(C(F)(F)F)c3)c2)c1" ?
Resp: 4.23

Req: Would you mind telling me what TGI value was observed for "Fc1ccc(N=C/C=C/Nc2ccc(F)cc2)cc1" ?
Resp: 10.3

----------
For each record, write down the corresponding TGI.
Tested on: TK-10 renal
Assay: NCI tumour cell line growth inhibition, 48 h

Req: Would you mind telling me what TGI value was observed for "Nc1ccccc1.[C-]#[O+].[C-]#[O+].[C-]#[O+].[C-]#[O+].[C-]#[O+].[Cr]" ?
Resp: > 10 µM

Req: Would you mind telling me what TGI value was observed for "CCOC(=O)c1nc2ccccc2nc1Oc1ccc(C(=O)OC)cc1" ?
Resp: > 100 µM

Req: Would you mind telling me what TGI value was observed for "CN=C(NC(=S)N(C)C)N(C)C" ?
Resp: > 100 µM

Req: Would you mind telling me what TGI value was observed for "COc1ccc(NC(=O)CC(=O)n2nc(C)c(N=Nc3cccc(C)c3)c2C)cc1" ?
Resp: > 100 µM

Req: Would you mind telling me what TGI value was observed for COC1CC(OC2C(C)OC(OC3C(C)OC(OC4C(O)CC(O[C@H]5CC[C@@]6(C)C(=CC[C@]7(O)[C@@H]6C[C@@H](OC(C)=O)[C@@]6(C)[C@]7(O)CC[C@@]6(O)C(C)=O)C5)OC4C)CC3OC)CC2OC)OC(C)C1O (stereo partly drawn) ?
Resp: > 12.5 µM

Req: Would you mind telling me what TGI value was observed for O=[N+]([O-])c1ccc(C(Nc2ccccc2)P(c2ccccc2)c2ccccc2)cc1 (stereo not drawn) ?
Resp: > 100 µM

Req: Would you mind telling me what TGI value was observed for "CC(=O)c1ccccc1NCC(=O)Nn1cnc2ccc(S(=O)(=O)Nc3ccccc3C(C)=O)cc2c1=O" ?
Resp: > 100 µM

Req: Would you mind telling me what TGI value was observed for O=C(O)C1CCCCC1c1c2ccc(=O)c(O)c-2oc2c(O)c(O)ccc12 (stereo not drawn) ?
Resp: > 100 µM

Req: Would you mind telling me what TGI value was observed for "NNc1nncc2[nH]cnc12" ?
Resp: > 100 µM

Req: Would you mind telling me what TGI value was observed for "O=c1cc(-c2c[nH]c3ccccc23)[nH]c2cc3c(cc12)OCO3" ?
Resp: > 100 µM

Req: Would you mind telling me what TGI value was observed for "CC(=O)c1c(CN(C)c2ccccc2)n([O-])c2ccccc2[n+]1=O" ?
Resp: > 100 µM

Req: Would you mind telling me what TGI value was observed for "NC(=O)c1c([N+](=O)[O-])cc(C(F)(F)F)cc1[N+](=O)[O-]" ?
Resp: > 100 µM

Req: Would you mind telling me what TGI value was observed for "Oc1ccc(Cl)cc1-c1cc(-c2ccccc2)nc(NCN2CCCCC2)n1" ?
Resp: > 100 µM

----------
System: LOX IMVI melanoma
Test: NCI tumour cell line growth inhibition, 48 h
Endpoint: TGI

Req: Would you mind telling me what TGI value was observed for "CC(C)(C)c1ccc(OC(=O)Nc2ccc(O)c(C(=O)O)c2)cc1" ?
Resp: > 100 µM

Req: Would you mind telling me what TGI value was observed for "NC(=O)c1ccccc1NC(=O)C(=O)Cc1nc2ccccc2[nH]c1=O" ?
Resp: > 100 µM

Req: Would you mind telling me what TGI value was observed for "O=c1sc2c(s1)-c1sc(=O)sc1SS2" ?
Resp: > 100 µM

Req: Would you mind telling me what TGI value was observed for CCOP(=O)(OCC)C(c1ccccc1)N(C(=O)NC(F)(F)F)c1cccc(F)c1 (stereo not drawn) ?
Resp: > 100 µM

Req: Would you mind telling me what TGI value was observed for "Cc1cc(-c2ccccc2)nc(Nc2nc3ccccc3o2)n1" ?
Resp: > 100 µM

Req: Would you mind telling me what TGI value was observed for "Cc1noc2c1C(=O)CCC2" ?
Resp: > 100 µM

Req: Would you mind telling me what TGI value was observed for "CCO[C@@]1(COCc2ccccc2)OC(=O)C[C@@H]1N1C(=O)OC[C@@H]1c1ccccc1" ?
Resp: > 100 µM

Req: Would you mind telling me what TGI value was observed for "CCOC(=O)c1sc2nc(SC)nc3c2c1NCN3c1ccc(F)c(F)c1" ?
Resp: > 60.1 µM

Req: Would you mind telling me what TGI value was observed for "Clc1ccc(-c2nnc(-c3cccc4ccccc34)o2)cc1Cl" ?
Resp: > 100 µM

Req: Would you mind telling me what TGI value was observed for "ON(Cc1ccccc1)C(=S)c1ccccc1" ?
Resp: > 46.9 µM

Req: Would you mind telling me what TGI value was observed for "COc1ccccc1C1=C(Nc2ccccc2)C(=O)NC1=O" ?
Resp: > 25 µM

Req: Would you mind telling me what TGI value was observed for COC(=O)C1C=CCON2CCc3c(n(C)c4ccccc34)C12 (stereo not drawn) ?
Resp: > 100 µM

Req: Would you mind telling me what TGI value was observed for "COc1ccc2c(c1)C/C(=C\c1cccc3ccccc13)C2=O" ?
Resp: > 100 µM

----------
Tested on: MDA-MB-435
Assay: NCI tumour cell line growth inhibition, 48 h
For each record, write down the corresponding TGI.

Req: Would you mind telling me what TGI value was observed for "Cc1c(-c2ccccc2)nn2cc(-c3ccccc3)nnc12" ?
Resp: > 100 µM

Req: Would you mind telling me what TGI value was observed for "COC(=O)[C@H]1NC(=O)CCSSC1(C)C" ?
Resp: > 100 µM

Req: Would you mind telling me what TGI value was observed for "Brc1ccc2[nH]cc(-c3nc(-c4c[nH]c5ncccc45)cs3)c2c1" ?
Resp: 15.8 µM

Req: Would you mind telling me what TGI value was observed for "O=C(CCC(=O)CC(O)(C(F)(F)F)C(F)(F)F)CC(O)(C(F)(F)F)C(F)(F)F" ?
Resp: > 100 µM

Req: Would you mind telling me what TGI value was observed for "O=C(CCCCCCCCC(=O)N1C(=O)CC(=O)N(c2ccccc2)C1=S)N1C(=O)CC(=O)N(c2ccccc2)C1=S" ?
Resp: > 100 µM

Req: Would you mind telling me what TGI value was observed for Cc1ccc(C(NC(=O)c2ccccc2)c2ccc3cccnc3c2O)cc1 (stereo not drawn) ?
Resp: 23.4 µM

Req: Would you mind telling me what TGI value was observed for "CC(=O)c1ccccc1NCC(=O)Nn1cnc2ccc(S(=O)(=O)Nc3ccccc3C(C)=O)cc2c1=O" ?
Resp: > 100 µM

Req: Would you mind telling me what TGI value was observed for COC1=C(C)C(=O)c2c(c(CCCl)c3n2CCC3O)C1=O (stereo not drawn) ?
Resp: 2.79 µM

Req: Would you mind telling me what TGI value was observed for CC(=O)OC1C(C)OC(OC(=O)C2CCC3C(C2)OC2(CC(OC(=O)/C=C/c4ccccc4)C(C)CO2)C32CO2)C(OC2OC(C)C(O)C(OC(C)=O)C2O)C1O (stereo not drawn) ?
Resp: < 0.01 µM

Req: Would you mind telling me what TGI value was observed for O=[N+]([O-])c1ccc(C(Nc2ccccc2)P(c2ccccc2)c2ccccc2)cc1 (stereo not drawn) ?
Resp: > 100 µM

Req: Would you mind telling me what TGI value was observed for CCCCCCNC(=O)CCC(NC(=O)c1ccc(N(C)Cc2cnc3nc(N)nc(N)c3n2)cc1)C(=O)NCCCCCC (stereo not drawn) ?
Resp: > 100 µM

Req: Would you mind telling me what TGI value was observed for "COc1cc(-c2cc(-c3ccc(Nc4ccnc5cc(Cl)ccc45)cc3)nc(N3CCOCC3)n2)cc(OC)c1OC" ?
Resp: 3.48 µM

Req: Would you mind telling me what TGI value was observed for O=c1[nH]c(=O)n(C2CC(O)C(CO)O2)cc1NN=NCCCc1ccccc1 (stereo not drawn) ?
Resp: > 100 µM
